- Test system: A549/ATCC NSCLC
- Experiment notes: NCI-60 one-dose screen, 48 h
- Condition label: 10 µM unless noted
About 83,000 compounds went through this panel and 20% of them were active in at least one assay; those are over-represented in the sample as a whole. Active and inactive are the calls of the source. Rule for the calls: active = growth percent below 10; inactive = the rest.
Outcome codes: active, inactive

{"columns": ["Compound", "Class"],
 "data": [
  ["Cc1ccc(NC(=O)C2CCC(CN3CCN(C)CC3)CC2)cc1Nc1nccc(-c2cccnc2)n1 (stereo unspecified)", "inactive"],
  ["COC(=O)c1cccc(NC(=O)c2ccc(-c3cccc(N)c3)o2)c1", "inactive"],
  ["Cc1cc(C)nc(SC2=C(Nc3ccc(C)c(Cl)c3)C(=O)N(Cc3ccccc3)C2=O)n1", "inactive"],
  ["O=c1cc(CSc2nnc(SCc3cc(=O)oc4c3ccc3ccccc34)o2)c2ccc3ccccc3c2o1", "inactive"],
  ["O=C(COc1ccc(/C=C2\\CSc3ccccc3C2=O)cc1)Nc1nccs1", "inactive"],
  ["CCCSc1ccc2nc(NC(=O)OC)[nH]c2c1", "inactive"],
  ["N#C/C(=C\\c1ccc(-c2cc(C(F)(F)F)ccc2Cl)o1)c1nc(-c2ccco2)cs1", "inactive"],
  ["CSc1nc(-c2cccc(NC(=O)CCl)c2)c(C#N)c(=O)n1C", "inactive"],
  ["O=C(COc1cccc(/C=C2\\CSc3ccccc3C2=O)c1)Nc1nccs1", "inactive"],
  ["Nc1ccc(S(=O)(=O)O)c2ccc(N=Nc3ccc(N=Nc4ccc(S(=O)(=O)O)cc4)c4ccccc34)c(O)c12", "inactive"],
  ["O=C(O)c1ccc(N=CC(=O)c2ccc(-c3ccccc3)cc2)cc1", "inactive"],
  ["Cc1cc2nc(NC(=O)CN3CCN(CCN4C(=O)c5cccc6cccc(c56)C4=O)CC3)sc2cc1C", "inactive"],
  ["NC(CSC(c1ccccc1)(c1ccccc1)c1ccc(Cl)cc1)C(=O)O (stereo unspecified)", "active"],
  ["Cc1cc(N2CCSCC2)nc(NC2CCCC(Nc3ccnc4cc(Cl)ccc34)C2)n1 (stereo unspecified)", "active"],
  ["COc1cc2c(cc1O)CC[C@@H]1[C@@H]2CC[C@]2(C)[C@@H](NCCN(C)C)CC[C@@H]12", "active"],
  ["CCc1nc(N)nc(N)c1C#CC(C)c1cc(-c2ccnc(C)c2)c2oc(C)nc2c1 (stereo unspecified)", "active"],
  ["COc1cccc(-c2nc3sccn3c2-c2ccnc(NCCNS(=O)(=O)c3ccc(F)cc3)c2)c1", "inactive"],
  ["COc1ccc(-c2cc(-c3ccc(Nc4ccnc5cc(Cl)ccc45)cc3)nc(N3CCOCC3)n2)cc1", "inactive"],
  ["Cc1cc(C)nc(SC2=C(Nc3cc(Cl)ccc3O)C(=O)N(Cc3ccccc3)C2=O)n1", "inactive"],
  ["NNCCc1ccc(NC(=O)CCCc2ccc(/C=C/C(=O)NO)cc2)cc1", "inactive"],
  ["NC(=NCCCOc1ccc(Cl)cc1)Nc1ccc(Cl)cc1", "inactive"],
  ["COC(=O)c1ccc(NC(=O)c2ccc(-c3cccc([N+](=O)[O-])c3)o2)cc1", "inactive"],
  ["Nc1ccc(-c2cc3c(Nc4ccc(Oc5cccc(C(F)(F)F)c5)c(Cl)c4)ncnc3s2)cc1", "inactive"],
  ["O=c1oc2c(C(F)(F)F)cccc2cc1-c1csc(Nc2ccc(OCCF)cc2)n1", "inactive"],
  ["COc1cccc(/C=C2\\SC(=Nc3ccc(NC(C)=O)cc3)NC2=O)c1OC", "inactive"],
  ["O=C1CSC(=S)N1CCc1ccc(O)cc1", "inactive"]
]}
